# Tested on: CEM-C1
# EXPERIMENT SUMMARY: 3H thymidine proliferation assay, CEM-C1
# Type: cell-based, human
# TEST CONDITIONS: Homo sapiens, CEM/C1, read-out: EC50, CEM-C1, 3H thymidine method, 72 h incubation
# Procedure: This example generally describes the procedures used to assay the antiproliferative activity of compounds of this invention or their conjugates. Human tumor cell lines were obtained from the American Type Culture Collection (ATCC), P.O. Box 1549, Manassas, Va. […] The ^3H thymidine plates were pulsed with 1.0 μCi of ^3H-thymidine per well for the last 24 hours of the total incubation period, harvested, and read on a Top Count Scintillation Counter (Packard Instruments, Meriden, Conn.). […]
ENDPOINT LABEL: EC50
Report field: quantity (unit follows the number).

Requested read-out: EC50. Entry: CC[C@H](C)[C@H](NC(=O)[C@H]1CCCCN1C)C(=O)N(C)[C@H](C[C@@H](OC)c1nc(C(=O)N[C@@H](Cc2ccccc2)C(=O)N[C@@H](C)C(=O)OC)cs1)C(C)C
13 nM

Requested read-out: EC50. Entry: CC[C@H](C)[C@H](NC(=O)[C@H]1CCCCN1C)C(=O)N(C)[C@H](C[C@@H](OC)c1nc(C(=O)N[C@H](CCC(=O)OC)Cc2ccccc2)cs1)C(C)C
22 nM

Requested read-out: EC50. Entry: CC[C@H](C)[C@H](NC(=O)[C@H]1CCCCN1C)C(=O)N(C)[C@H](C[C@@H](OC(C)=O)c1nc(C(=O)N[C@@H](Cc2ccc(N)cc2)CC(C)C(=O)O)cs1)C(C)C (some centres unmarked)
44 nM

Requested read-out: EC50. Entry: CC[C@H](C)[C@H](NC(=O)[C@H]1CCCCN1C)C(=O)N(C)[C@H](C[C@@H](OC)c1nc(C(=O)NC(Cc2ccccc2)C[C@H](C)C(=O)O)cs1)C(C)C (some centres unmarked)
0.93 nM

Requested read-out: EC50. Entry: CCCC(NC(=O)c1csc([C@@H](C[C@H](C(C)C)N(C)C(=O)[C@@H](NC(=O)[C@H]2CCCCN2C)[C@@H](C)CC)OC)n1)C(=O)OC (some centres unmarked)
43 nM

Requested read-out: EC50. Entry: CC[C@H](C)[C@H](NC(=O)[C@H]1CCCCN1C)C(=O)N(C)[C@H](C[C@@H](OC)c1nc(C(=O)N[C@@H](C)C(=O)N[C@@H](Cc2ccccc2)C(=O)OC)cs1)C(C)C [Compound 26a]
10 nM

Requested read-out: EC50. Entry: CC[C@H](C)[C@H](NC(=O)[C@H]1CCCCN1C)C(=O)N(COC(=O)CC(C)C)[C@H](C[C@@H](OC(C)=O)c1nc(C(=O)N[C@@H](Cc2ccc(N)cc2)CC(C)C(=O)O)cs1)C(C)C (some centres unmarked)
0.38 nM

Requested read-out: EC50. Entry: CC[C@H](C)[C@H](NC(=O)[C@H]1CCCCN1C)C(=O)N(C)[C@H](C[C@@H](OC)c1nc(C(=O)N[C@H](CC(=O)OC)Cc2ccccc2)cs1)C(C)C
225 nM

###

# Test system: HL-60
# EXPERIMENT SUMMARY: ATP luminescence proliferation assay, HL-60
# Assay type: cell-based, human
# TEST CONDITIONS: Homo sapiens; ATP luminescence, HL-60, 72 h incubation; read-out: EC50 HL-60 (72 h)
# Description: This example generally describes the procedures used to assay the antiproliferative activity of compounds of this invention or their conjugates. […] The ^3H thymidine plates were pulsed with 1.0 μCi of ^3H-thymidine per well for the last 24 hours of the total incubation period, harvested, and read on a Top Count Scintillation Counter (Packard Instruments, Meriden, Conn.). […] Table 3 provides the data for the ATP luminescence proliferation assays, with an incubation period of 48, 72, or 96 h, as noted.
For each of the compounds below, state its EC50.
Enter your answer as a number in µM; do not include the unit.

Requested read-out: EC50. Entry: Nc1ccc(C(=O)Nc2ccc3[nH]c(C(=O)N4C[C@@H](CCl)c5c4cc(O)c4ccccc54)cc3c2)cc1 [CBI, reference compound]
0.00076

Requested read-out: EC50. Entry: COc1cccc2c1C(=O)c1c(O)c3c(c(O)c1C2=O)C[C@@](O)(C(=O)CO)C[C@@H]3O[C@H]1C[C@H](N)[C@H](O)[C@H](C)O1 [Dox, doxorubicin, reference compound]
0.147

Taken from patent US20130204033A1.
